Values from ChEMBL document CHEMBL4346667

assay: Antiproliferative activity against human H8 cells assessed as reduction in cell viability after 48 hrs by MTT assay; assay type: functional, cell-based
Listed here are compounds together with their documented pIC50.
On this scale, pIC50 is minus log10 of a concentration expressed in M (mol/L).

Study these solved cases before continuing.
- smiles.code: "COc1cc([C@@H]2c3cc4c(cc3[C@@H](Nc3ccc5[nH]ncc5c3)[C@H]3COC(=O)[C@H]23)OCO4)cc(OC)c1OC"
  experimental.value: 4.01
- smiles.code: "COc1cc([C@@H]2c3cc4c(cc3[C@@H](Nc3ccc5[nH]ccc5c3)[C@H]3COC(=O)[C@H]23)OCO4)cc(OC)c1OC"
  experimental.value: 4.53
- smiles.code: "COc1cc([C@@H]2c3cc4c(cc3[C@@H](Nc3cccc5cn[nH]c35)[C@H]3COC(=O)[C@H]23)OCO4)cc(OC)c1OC"
  experimental.value: 4.71
- smiles.code: "COc1cc([C@@H]2c3cc4c(cc3[C@@H](Nc3cccc5cccnc35)[C@H]3COC(=O)[C@H]23)OCO4)cc(OC)c1OC"
  experimental.value: 4.05
- smiles.code: "COc1cc([C@@H]2c3cc4c(cc3[C@@H](Nc3ccc5cc[nH]c5c3)[C@H]3COC(=O)[C@H]23)OCO4)cc(OC)c1OC"
  experimental.value: 4.07
- smiles.code: "COc1cc([C@@H]2c3cc4c(cc3[C@@H](Nc3cccc5ncccc35)[C@H]3COC(=O)[C@H]23)OCO4)cc(OC)c1OC"
  experimental.value: 4.03

Req: Given the compound COc1cc2c(c(OC)c1OC)-c1ccc(OC)c(=O)cc1[C@@H](NC(C)=O)CC2 , what is its reported pIC50?
Resp: 5.21

Req: And the next one, COc1cc([C@@H]2c3cc4c(cc3[C@@H](Nc3ccc5cccnc5c3)[C@H]3COC(=O)[C@H]23)OCO4)cc(OC)c1OC ?
Resp: 5.03

Req: Further, for COc1cc([C@@H]2c3cc4c(cc3[C@@H](Nc3ccc5ncccc5c3)[C@H]3COC(=O)[C@H]23)OCO4)cc(OC)c1OC ?
Resp: 4.10

Req: // same read-out, input: COc1cc([C@@H]2c3cc4c(cc3[C@H](O)[C@H]3COC(=O)[C@H]23)OCO4)cc(OC)c1OC
Resp: 5.08

Req: Query COc1cc([C@@H]2c3cc4c(cc3[C@@H](Nc3cccc5[nH]ccc35)[C@H]3COC(=O)[C@H]23)OCO4)cc(OC)c1OC next
Resp: 4.53

Req: Now this one: COc1cc([C@@H]2c3cc4c(cc3[C@@H](Nc3ccc5cn[nH]c5c3)[C@H]3COC(=O)[C@H]23)OCO4)cc(OC)c1OC
Resp: 4.18

Req: Continue with COc1cc([C@@H]2c3cc4c(cc3[C@@H](Nc3cccc5[nH]ncc35)[C@H]3COC(=O)[C@H]23)OCO4)cc(OC)c1OC
Resp: 4.59

Req: Next up: COc1cc([C@@H]2c3cc4c(cc3[C@@H](Nc3cccc5cc[nH]c35)[C@H]3COC(=O)[C@H]23)OCO4)cc(OC)c1OC
Resp: 4.71

Req: Another compound to look at: COC(=O)Nc1nc2cc(C(=O)c3cccs3)ccc2[nH]1
Resp: 4.74

====

tested on: L02; experiment: Antiproliferative activity against human HL7702 cells assessed as reduction in cell viability after 48 hrs by MTT assay; type: functional, cell-based; conditions: L02, 48 h
property: pIC50
Please report pIC50 as the negative decimal logarithm of the molar concentration, giving only the number.

Worked cases, pIC50 given:
- smiles.code: "COc1cc([C@@H]2c3cc4c(cc3[C@@H](Nc3cccc5cc[nH]c35)[C@H]3COC(=O)[C@H]23)OCO4)cc(OC)c1OC"
  pIC50: 4.52
- smiles.code: "COc1cc([C@@H]2c3cc4c(cc3[C@@H](Nc3ccc5[nH]ncc5c3)[C@H]3COC(=O)[C@H]23)OCO4)cc(OC)c1OC"
  pIC50: 4.30
- smiles.code: "COC(=O)Nc1nc2cc(C(=O)c3cccs3)ccc2[nH]1"
  pIC50: 4.87
- smiles.code: "COc1cc([C@@H]2c3cc4c(cc3[C@@H](Nc3ccc5cn[nH]c5c3)[C@H]3COC(=O)[C@H]23)OCO4)cc(OC)c1OC"
  pIC50: 4.42
- smiles.code: "COc1cc([C@@H]2c3cc4c(cc3[C@@H](Nc3cccc5[nH]ccc35)[C@H]3COC(=O)[C@H]23)OCO4)cc(OC)c1OC"
  pIC50: 4.47
- smiles.code: "COc1cc([C@@H]2c3cc4c(cc3[C@@H](Nc3ccc5ncccc5c3)[C@H]3COC(=O)[C@H]23)OCO4)cc(OC)c1OC"
  pIC50: 4.19

Req: # lookup: pIC50 of COc1cc([C@@H]2c3cc4c(cc3[C@@H](Nc3cccc5ncccc35)[C@H]3COC(=O)[C@H]23)OCO4)cc(OC)c1OC
Resp: 4.05

====

test system: HepG2; experiment: Antiproliferative activity against human HepG2 cells assessed as reduction in cell viability after 48 hrs by MTT assay; assay type: functional, cell-based; settings: HepG2, 48 h
property: IC50 (nM)
Numeric only. Scale: nM

- molecule: "COc1cc([C@@H]2c3cc4c(cc3[C@@H](Nc3cccc5[nH]ccc35)[C@H]3COC(=O)[C@H]23)OCO4)cc(OC)c1OC"
  IC50, nM: 1800
- molecule: "COc1cc([C@@H]2c3cc4c(cc3[C@H](O)[C@H]3COC(=O)[C@H]23)OCO4)cc(OC)c1OC [PODOFILOX]"
  IC50, nM: 2400
- molecule: "COc1cc([C@@H]2c3cc4c(cc3[C@@H](Nc3ccc5ncccc5c3)[C@H]3COC(=O)[C@H]23)OCO4)cc(OC)c1OC"
  IC50, nM: 800

Req: Requested field: IC50. Item: COc1cc([C@@H]2c3cc4c(cc3[C@@H](Nc3ccc5cccnc5c3)[C@H]3COC(=O)[C@H]23)OCO4)cc(OC)c1OC
Resp: 4100

Req: How about COc1cc([C@@H]2c3cc4c(cc3[C@@H](Nc3ccc5[nH]ncc5c3)[C@H]3COC(=O)[C@H]23)OCO4)cc(OC)c1OC ?
Resp: 300

Req: Okay, and COc1cc([C@@H]2c3cc4c(cc3[C@@H](Nc3cccc5cn[nH]c35)[C@H]3COC(=O)[C@H]23)OCO4)cc(OC)c1OC ?
Resp: 6300

====

assay: Binding affinity to alpha/beta tubulin complex (unknown origin); design: species or system Homo sapiens
property: Ki (nM)
Numbers only here, please. The scale is nM.

- smiles.code: "COc1cc([C@@H]2c3cc4c(cc3[C@@H](Nc3cccc5cc[nH]c35)[C@H]3COC(=O)[C@H]23)OCO4)cc(OC)c1OC"
  Ki [nM]: 50

Continue with the next compound.
Req: For the compound shown here, COc1cc([C@@H]2c3cc4c(cc3[C@@H](Nc3ccc5[nH]ncc5c3)[C@H]3COC(=O)[C@H]23)OCO4)cc(OC)c1OC , give the reported Ki.
Resp: 60

====

tested on: MCF7; experiment: Antiproliferative activity against human MCF7 cells assessed as reduction in cell viability after 48 hrs by MTT assay; type: functional, cell-based; conditions: MCF7, 48 h
pIC50: recorded values
Scale for pIC50: -log10 of concentration given in mol/L; no unit attached.

Check out these entries, answers already filled in.
- compound: "COc1cc2c(c(OC)c1OC)-c1ccc(OC)c(=O)cc1[C@@H](NC(C)=O)CC2 [COLCHICINE]"
  experimental.value: 4.84
- compound: "COc1cc([C@@H]2c3cc4c(cc3[C@@H](Nc3ccc5cccnc5c3)[C@H]3COC(=O)[C@H]23)OCO4)cc(OC)c1OC"
  experimental.value: 5.85

// switching to the query compound
Req: Given the entry COc1cc([C@@H]2c3cc4c(cc3[C@@H](Nc3ccc5[nH]ncc5c3)[C@H]3COC(=O)[C@H]23)OCO4)cc(OC)c1OC , report its measured pIC50.
Resp: 6.70

====

system: L02; experiment: Antiproliferative activity against human HL7702 cells assessed as reduction in cell viability after 48 hrs by MTT assay; format: functional, cell-based; conditions: L02, 48 h
IC50: recorded values
Numbers only; they are read as µM.

Before answering, review these 3 worked examples.
- smiles.code: "COc1cc([C@@H]2c3cc4c(cc3[C@H](O)[C@H]3COC(=O)[C@H]23)OCO4)cc(OC)c1OC"
  IC50, µM: 5
- smiles.code: "COc1cc2c(c(OC)c1OC)-c1ccc(OC)c(=O)cc1[C@@H](NC(C)=O)CC2"
  IC50, µM: 9.2
- smiles.code: "COc1cc([C@@H]2c3cc4c(cc3[C@@H](Nc3ccc5[nH]ccc5c3)[C@H]3COC(=O)[C@H]23)OCO4)cc(OC)c1OC"
  IC50, µM: 43.3

Here's the next entry for you.
Req: Value lookup for IC50; key = COc1cc([C@@H]2c3cc4c(cc3[C@@H](Nc3cccc5cccnc35)[C@H]3COC(=O)[C@H]23)OCO4)cc(OC)c1OC
Resp: 37
